- experimental-system: T1, IGF1R-Fc (extracellular domain of human IGF1R aa 1-932 fused to hinge and constant regions of human IgG1) (human, UniProt P08069 31-932)
- T1 construct: range 1-932; made in house by transient transfection, purified on Protein A; also called IGF-IR-Fc; not shown: hinge and constant regions of human IgG1
- assay-name: SPR Biacore, IGF1R-Fc
measure: kon (M⁻¹ s⁻¹)
Write down the numeric answer in M⁻¹ s⁻¹ and omit the unit.

Please review the following examples before continuing.
I1-GSGCGS8-E5 pegylated (designed binder, PEG on the Cys of the GSGCGS8 linker, alternative clone of I1-GS10-E5 pegylated; tail of first monomer EIEK (D to E); also called I1-GSGCGS8-E5(3)) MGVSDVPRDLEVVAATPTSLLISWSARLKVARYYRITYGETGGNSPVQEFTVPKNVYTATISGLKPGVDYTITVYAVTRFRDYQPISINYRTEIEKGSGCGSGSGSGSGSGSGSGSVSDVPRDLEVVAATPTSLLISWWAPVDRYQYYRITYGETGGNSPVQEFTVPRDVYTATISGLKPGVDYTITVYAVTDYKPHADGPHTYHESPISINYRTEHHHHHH = 852000
I1-GS10-E5(S62C) pegylated (designed binder, PEG on Cys at position 62 of E5 (position of SEQ ID NO: 1), also called I1-GS10-E5(S62C)(6)) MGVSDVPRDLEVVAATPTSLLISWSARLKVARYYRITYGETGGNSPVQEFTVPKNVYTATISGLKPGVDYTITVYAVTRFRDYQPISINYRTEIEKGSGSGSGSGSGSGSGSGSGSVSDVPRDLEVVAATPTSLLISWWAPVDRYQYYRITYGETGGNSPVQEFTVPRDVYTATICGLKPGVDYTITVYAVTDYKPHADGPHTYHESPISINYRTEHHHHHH = 1.07e+06

Okay, now this binder:
-- ask Requested field: kon. Item: I1-GS10-E5(S91C) pegylated (designed binder, PEG on Cys at position 91 of E5 (position of SEQ ID NO: 1), also called I1-GS10-E5(S91C)(8)) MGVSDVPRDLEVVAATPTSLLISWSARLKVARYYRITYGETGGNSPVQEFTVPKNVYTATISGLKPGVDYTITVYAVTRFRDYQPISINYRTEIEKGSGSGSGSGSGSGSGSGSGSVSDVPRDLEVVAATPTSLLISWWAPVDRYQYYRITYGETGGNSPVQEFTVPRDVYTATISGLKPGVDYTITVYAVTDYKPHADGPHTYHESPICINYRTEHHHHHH
-- reply 986000
